Biological target: human Lck enzyme (Homo sapiens)
Construct: purchased Carna Biosciences, Inc. 08-170
Test: Lck enzyme inhibitory activity (time-resolved fluorometry, biotinylated peptide phosphorylation)
Assay type: biochemical
Details: biotinylated peptide phosphorylation, read-out: LCK_IC50
pIC50: −log10 of the molar value.
endpointName: pIC50

Cc1cc2cc(C(=O)c3cnn(-c4c(C)cc(Oc5ccccc5F)cc4F)c3N)[nH]c2cc1N1CCCS1(=O)=O | 7.80

[A] Cc1cc(Oc2ccccc2F)ncc1-n1ncc(C(=O)c2cc3cc(NS(C)(=O)=O)c(F)cc3[nH]2)c1N
[B] CC(=O)N1CCC(c2cc3[nH]c(C(=O)c4cnn(-c5cnc(Oc6c(F)cccc6F)cc5C)c4N)cc3cc2OC(F)F)CC1
[C] Cc1cc(Oc2c(F)cccc2F)ncc1-n1ncc(C(=O)c2cc3cc(F)c(NS(=O)(=O)c4cccc(F)c4)cc3[nH]2)c1N
Kindly order the items shown according to pIC50, from the highest value down. Your task in answering is to list the labels in the requested order. A, B, C

---

Target: human Yes1 enzyme (Homo sapiens, UniProt P07947)
Construct: made in house
Sequence (P07947 whole entry): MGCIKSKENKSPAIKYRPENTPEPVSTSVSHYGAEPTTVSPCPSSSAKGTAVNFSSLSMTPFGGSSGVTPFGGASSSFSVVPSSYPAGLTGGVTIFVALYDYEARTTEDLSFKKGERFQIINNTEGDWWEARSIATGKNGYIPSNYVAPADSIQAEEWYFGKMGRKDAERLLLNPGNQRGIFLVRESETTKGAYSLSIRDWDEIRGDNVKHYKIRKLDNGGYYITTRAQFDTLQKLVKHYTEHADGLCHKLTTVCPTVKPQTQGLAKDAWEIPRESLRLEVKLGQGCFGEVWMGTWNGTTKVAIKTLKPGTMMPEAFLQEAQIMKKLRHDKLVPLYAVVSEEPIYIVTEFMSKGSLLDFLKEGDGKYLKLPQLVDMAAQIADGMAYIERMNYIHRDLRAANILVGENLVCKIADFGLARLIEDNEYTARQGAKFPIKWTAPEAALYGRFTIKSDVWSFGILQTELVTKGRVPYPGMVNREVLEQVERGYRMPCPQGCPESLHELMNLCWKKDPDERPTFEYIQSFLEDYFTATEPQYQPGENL
Test: Yes1 enzyme inhibitory activity (time-resolved fluorometry, biotinylated peptide phosphorylation)
Type: biochemical
Conditions: read-out: YES_IC50
endpointName: IC50 (nM)

Examples with their reported IC50 follow.
Cc1cc2cc(C(=O)c3cnn(-c4cnc(Oc5cc(F)ccc5F)cc4C)c3N)[nH]c2cc1NS(C)(=O)=O | 2.4
Cc1cc(Oc2ccccc2F)ccc1-n1ncc(C(=O)c2cc3cc(OCC(F)F)c(NS(=O)(=O)C4CCOCC4)cc3[nH]2)c1N | 1.6
Cc1cc(Oc2c(F)cccc2F)ncc1-n1ncc(C(=O)c2cc3cc(OC4CCN(C(C)C)CC4)c(-c4cccs4)cc3[nH]2)c1N | 5
Cc1cc(Oc2c(F)cccc2F)ncc1-n1ncc(C(=O)c2cc3cc(OC(F)F)c(N)cc3[nH]2)c1N | 1.6
Cc1cc2cc(C(=O)c3cnn(-c4ccc(Oc5ccccc5F)cc4C)c3N)[nH]c2cc1N1C(=O)NC(C)(C)C1=O | 0.87
Cc1cc2cc(C(=O)c3cnn(-c4cnc(Oc5c(F)cccc5F)cc4C)c3N)[nH]c2cc1NS(=O)(=O)N1CCOC[C@H]1C | 19

[A] Cc1cc2cc(C(=O)c3cnn(-c4ccc(Oc5ccccc5F)c(C)c4F)c3N)[nH]c2cc1NS(C)(=O)=O
[B] Cc1cc(-n2ncc(C(=O)c3cc4cc(OC5CCN(C6CS(=O)(=O)C6)CC5)c(Br)cc4[nH]3)c2N)ccc1Oc1ccccc1F
[C] Nc1c(C(=O)c2cc3cc(F)c(NS(=O)(=O)CCCF)cc3[nH]2)cnn1-c1ccc(Oc2ncccc2F)cc1F
[D] Cc1cc(Oc2cccc(F)c2F)nc(C)c1-n1ncc(C(=O)c2cc3cc(F)c(NS(C)(=O)=O)cc3[nH]2)c1N
[E] Cc1cc(-n2ncc(C(=O)c3cc4cc(OC5CCN(C6CCCC6)CC5)c(-c5ccccc5F)cc4[nH]3)c2N)ccc1Oc1ccccc1F
Put the items in sequence by IC50, from largest down. Output spec: a listing of the labels in the requested order. D, E, B, A, C
(D: 65 nM, E: 7.7 nM, B: 3.9 nM, A: 1.9 nM, C: 0.68 nM)

[P] Cc1cc(-n2ncc(C(=O)c3cc4cc(OC(F)F)c(NS(C)(=O)=O)cc4[nH]3)c2N)ccc1Oc1ccccc1F
[Q] Cc1cc(Oc2cccc(F)c2F)ncc1-n1ncc(C(=O)c2cc3cc(NS(C)(=O)=O)c(F)cc3[nH]2)c1N
For the two items P and Q , which reports the higher IC50 value? // caller expects the label of the chosen entry P
(P: 3.6 nM, Q: 1.5 nM)

[P] Cc1cc(Oc2ccccc2F)cc(F)c1-n1ncc(C(=O)c2cc3cc(OC(F)F)c(NS(C)(=O)=O)cc3[nH]2)c1N
[Q] Cc1cc(Oc2ccccc2F)ccc1-n1ncc(C(=O)c2cc3cc(F)c(NS(=O)(=O)C4CCOCC4)cc3[nH]2)c1N
[R] Cc1cc(Oc2ccccc2F)ccc1-n1ncc(C(=O)c2cc3cc(F)c(NC4CN(S(C)(=O)=O)C4)cc3[nH]2)c1N
[S] Cc1cc(-n2ncc(C(=O)c3cc4cc(OC5CCN(C6CS(=O)(=O)C6)CC5)c(-c5ccccc5F)cc4[nH]3)c2N)ccc1Oc1ccccc1F
[T] Cc1cc(Oc2c(F)cccc2F)ncc1-n1ncc(C(=O)c2cc3cc(C(C)C)c(NS(=O)(=O)C4CCCCC4)cc3[nH]2)c1N
Rank order required: IC50, descending. Use the labels to give the ranking in the order requested. T, S, P, Q, R
(T: 32 nM, S: 12 nM, P: 2.8 nM, Q: 1.4 nM, R: 0.85 nM)

---

Target: human Yes1 enzyme (Homo sapiens, UniProt P07947)
Construct: made in house
Assay: Yes1 enzyme inhibitory activity (time-resolved fluorometry, biotinylated peptide phosphorylation)
Format: biochemical
Settings: read-out: YES_IC50
endpointName: IC50 (nM)

Cc1cc2cc(C(=O)c3cnn(-c4cnc(Oc5c(F)cccc5F)cc4C)c3N)[nH]c2cc1N1C(=O)NC2(CCCCC2)C1=O [Example 5-1-316] | 6.2

[a] Cc1cc(Oc2c(F)cccc2F)ncc1-n1ncc(C(=O)c2cc3cc(OC4CCN(C5CS(=O)(=O)C5)CC4)c(Br)cc3[nH]2)c1N [Example 5-1-228]
[b] Cc1cc(Oc2c(F)cccc2F)ncc1-n1ncc(C(=O)c2cc3cc(F)c(N4C(=O)C(C)(C)NC4=S)cc3[nH]2)c1N [Example 5-1-115]
[c] Cc1cc(Oc2cc(Cl)ccc2Cl)ncc1-n1ncc(C(=O)c2cc3cc(F)c(NS(C)(=O)=O)cc3[nH]2)c1N [Example 5-1-055]
Endpoint returns the given molecules ordered by ascending IC50. Please express your ranking as an ordered list of the labels. a, b, c

---

Molecular target: human Src enzyme (Homo sapiens, UniProt P12931)
Construct: purchased Carna Biosciences, Inc. 08-173
Sequence (P12931 whole entry): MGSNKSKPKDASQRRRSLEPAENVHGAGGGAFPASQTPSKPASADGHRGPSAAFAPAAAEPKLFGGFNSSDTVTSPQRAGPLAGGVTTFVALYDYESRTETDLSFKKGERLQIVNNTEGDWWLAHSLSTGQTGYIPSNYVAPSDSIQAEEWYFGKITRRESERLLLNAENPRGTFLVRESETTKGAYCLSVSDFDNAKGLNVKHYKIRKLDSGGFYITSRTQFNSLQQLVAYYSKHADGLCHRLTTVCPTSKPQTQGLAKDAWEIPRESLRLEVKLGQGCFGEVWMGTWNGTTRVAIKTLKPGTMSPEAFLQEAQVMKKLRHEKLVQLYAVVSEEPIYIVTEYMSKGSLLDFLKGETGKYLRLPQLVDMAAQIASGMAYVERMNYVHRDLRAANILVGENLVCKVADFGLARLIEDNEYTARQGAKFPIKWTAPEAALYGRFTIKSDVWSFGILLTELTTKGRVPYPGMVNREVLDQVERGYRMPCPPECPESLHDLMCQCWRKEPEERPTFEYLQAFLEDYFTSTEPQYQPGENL
Assay: Src enzyme inhibitory activity (time-resolved fluorometry, biotinylated peptide phosphorylation)
Assay type: biochemical
Settings: biotinylated peptide phosphorylation, read-out: SRC_IC50
pIC50: −log10 of the molar value.
endpointName: pIC50

Cc1cc(Oc2c(F)cccc2F)ncc1-n1ncc(C(=O)c2cc3cc(OC(F)F)c(C4CCN(C(=O)CN)CC4)cc3[nH]2)c1N [Example 4-18-003] | 7.64

[1] COc1cc2cc(C(=O)c3cnn(-c4cnc(Oc5ccccc5F)cc4C)c3N)[nH]c2cc1NS(C)(=O)=O [Example 4-1-008]
[2] Cc1cc(Oc2ccccc2)cc(F)c1-n1ncc(C(=O)c2cc3cc(NS(C)(=O)=O)c(F)cc3[nH]2)c1N [Example 4-2-103]
// select label with min value of measured pIC50 from [ 1 , 2 ] Your answer should be the label attached to the chosen record. 1

---

Target: human Yes1 enzyme (Homo sapiens)
Construct: made in house
Assay: Yes1 enzyme inhibitory activity (time-resolved fluorometry, biotinylated peptide phosphorylation)
Assay type: biochemical
Conditions: read-out: YES_IC50
endpointName: IC50 (nM)

[1] Cc1cc(Oc2c(F)cccc2F)ncc1-n1ncc(C(=O)c2cc3cc(OC4CCN(C5COC5)CC4)c(Br)cc3[nH]2)c1N
[2] Cc1cc(Oc2ccccc2F)ncc1-n1ncc(C(=O)c2cc3cc(OCC(F)F)c(N4C(=O)NC(C)(C)C4=O)cc3[nH]2)c1N
API: POST /compare with 1 and 2 ; response names the item with higher IC50. // return label of chosen record 2

[a] Cc1cc(-n2ncc(C(=O)c3cc4cc(OC5CCN(C6COC6)CC5)c(Br)cc4[nH]3)c2N)ccc1Oc1ccccc1F
[b] Cc1cc(Oc2c(F)cccc2F)ncc1-n1ncc(C(=O)c2cc3cc(F)c(N4C(=O)NC(C)(C(F)(F)F)C4=O)cc3[nH]2)c1N (stereo not drawn)
I need your help: which of the pair a , b has higher IC50? Mark your selection by writing its label. b

[P] Cc1cc(Oc2ccccc2F)ccc1-n1ncc(C(=O)c2cc3cc(F)c(N4C(=O)NC5(COC5)C4=O)cc3[nH]2)c1N
[Q] Cc1cc(Oc2c(F)cccc2F)ncc1-n1ncc(C(=O)c2cc3cc(F)c(N4C(=O)NC5(CC5)C4=O)cc3[nH]2)c1N
[R] Cc1cc2cc(C(=O)c3cnn(-c4cnc(Oc5c(F)cccc5F)cc4C)c3N)[nH]c2cc1C1CCN(S(=O)(=O)C2CC2)CC1
Task for the reader: rank each entry by its IC50, from the minimum upward. Response format: the labels, sorted as the prompt asks. P, Q, R

---

Target: human Lck enzyme (Homo sapiens, UniProt P06239)
Construct: purchased Carna Biosciences, Inc. 08-170
Sequence (P06239 whole entry): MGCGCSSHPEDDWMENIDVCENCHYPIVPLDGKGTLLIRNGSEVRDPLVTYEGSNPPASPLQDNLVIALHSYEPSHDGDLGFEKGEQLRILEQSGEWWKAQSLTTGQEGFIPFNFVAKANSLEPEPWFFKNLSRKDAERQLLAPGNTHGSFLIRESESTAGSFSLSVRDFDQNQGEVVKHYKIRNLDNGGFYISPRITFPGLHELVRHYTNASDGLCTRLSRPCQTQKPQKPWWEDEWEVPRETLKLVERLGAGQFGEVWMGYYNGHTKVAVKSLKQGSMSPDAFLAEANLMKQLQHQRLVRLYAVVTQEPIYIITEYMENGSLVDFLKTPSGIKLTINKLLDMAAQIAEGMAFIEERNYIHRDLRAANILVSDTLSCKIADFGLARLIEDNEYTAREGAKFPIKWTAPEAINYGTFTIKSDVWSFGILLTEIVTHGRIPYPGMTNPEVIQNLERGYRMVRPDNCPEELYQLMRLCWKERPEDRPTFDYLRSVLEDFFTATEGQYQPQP
Assay: Lck enzyme inhibitory activity (time-resolved fluorometry, biotinylated peptide phosphorylation)
Format: biochemical
Conditions: read-out: LCK_IC50
endpointName: IC50 (nM)

Use the examples below as a reference point.
CS(=O)(=O)Nc1cc2[nH]c(C(=O)c3cnn(-c4c(Cl)cc(Oc5cccc(F)c5F)cc4Cl)c3N)cc2cc1F | 83
Cc1cc(Oc2ccccc2F)ncc1-n1ncc(C(=O)c2cc3cc(F)c(NS(=O)(=O)C4CCOCC4)cc3[nH]2)c1N | 37
Cc1cc(Oc2ccccc2F)ccc1-n1ncc(C(=O)c2cc3cc(F)c(N4CCN(S(C)(=O)=O)CC4)cc3[nH]2)c1N | 9.2

[A] Cc1cc2cc(C(=O)c3cnn(-c4ccc(Oc5c(F)cccc5F)cc4C)c3N)[nH]c2cc1NS(C)(=O)=O
[B] Cc1cc(Oc2ccccc2F)ccc1-n1ncc(C(=O)c2cc3cc(F)c(N4C(=O)NC(C)(C)C4=O)cc3[nH]2)c1N
IC50 comparison. Which is larger, A or B ? API: response body contains the label of the selected item. B
